Entry source: paper PMC9482650

systemName: T1, NHERF3_4, Q5T2W1
T1 sequence (Q5T2W1 373-468, limits assumed, looked up): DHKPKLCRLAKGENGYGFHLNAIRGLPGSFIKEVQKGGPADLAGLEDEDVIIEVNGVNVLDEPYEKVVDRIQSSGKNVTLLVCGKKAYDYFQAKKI
test: holdup assay
Set-up: key: below the threshold = too weak to quantify, mostly under pKd 3.1 to 4
conditionInfo: plain residues with an end cap or a label only (N-terminal biotin on a linker: ttds)

>  <binder>
PVRVCEETSL [OTULIN, Q96BN8]

>  <pKd>
below the threshold

$$$$
>  <binder>
KKYVDAETSL [SLC4A7, Q9Y6M7]

>  <pKd>
below the threshold

$$$$
>  <binder>
NDPAWDETNL [ARHGEF7, Q14155;Q14155-1]

>  <pKd>
below the threshold

$$$$
